- target.entity: Human EphA2 (ephrin receptor A2) on cells (human, UniProt P29317 25-976)
- Sequence (P29317 25-976): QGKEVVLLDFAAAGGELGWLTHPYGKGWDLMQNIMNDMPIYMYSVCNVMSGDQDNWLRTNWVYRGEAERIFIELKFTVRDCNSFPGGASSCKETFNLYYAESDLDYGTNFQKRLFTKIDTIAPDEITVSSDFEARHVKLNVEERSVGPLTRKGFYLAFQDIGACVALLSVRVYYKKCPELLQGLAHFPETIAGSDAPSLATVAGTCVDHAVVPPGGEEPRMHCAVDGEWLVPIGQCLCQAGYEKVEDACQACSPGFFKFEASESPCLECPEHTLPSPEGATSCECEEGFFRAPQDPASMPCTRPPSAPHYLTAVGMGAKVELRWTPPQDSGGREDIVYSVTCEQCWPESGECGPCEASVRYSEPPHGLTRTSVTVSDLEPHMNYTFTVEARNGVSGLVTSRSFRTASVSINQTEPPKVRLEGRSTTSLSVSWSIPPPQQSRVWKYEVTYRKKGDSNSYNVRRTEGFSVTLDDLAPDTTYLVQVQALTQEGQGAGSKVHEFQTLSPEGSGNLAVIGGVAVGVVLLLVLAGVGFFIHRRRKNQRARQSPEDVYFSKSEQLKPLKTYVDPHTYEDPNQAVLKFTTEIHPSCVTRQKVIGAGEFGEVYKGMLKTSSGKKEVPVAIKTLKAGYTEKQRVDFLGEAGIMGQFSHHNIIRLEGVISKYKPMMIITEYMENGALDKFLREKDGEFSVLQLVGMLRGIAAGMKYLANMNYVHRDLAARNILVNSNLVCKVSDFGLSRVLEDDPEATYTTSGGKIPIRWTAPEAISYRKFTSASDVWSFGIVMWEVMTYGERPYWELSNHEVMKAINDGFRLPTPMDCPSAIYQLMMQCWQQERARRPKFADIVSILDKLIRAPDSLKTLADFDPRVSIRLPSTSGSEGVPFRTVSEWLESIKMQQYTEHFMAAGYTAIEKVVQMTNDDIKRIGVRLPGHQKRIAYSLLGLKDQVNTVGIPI
- test.summary: cell-based or functional assay
Lab note: compare ADCC - EC50 (nM), Trial 1, A549 with 0.3 nM, writing Satisfied if less and Not satisfied if equal or more.

Please review the entries below; each comes with its answer.
AB-010663 (antibody, V domains shown) VH: QVQLQQWGAGLLKPSETLSLTCAVYGGSFSDYYWSWIRQPPGKGLEWIGEINHRGSINYNNYNPSLKSRVTISVDTSKNQFSLKLSSVTAADTAVYYCAKPLRPHCTNGVCYSGDAFDIWGQGTMVTVAS VL: SYVLTQPPSVSVAPGQTARITCRGNNIGSMNVHWYQQKPGQAPVLVVYDDSDRPSGIPEQFSGSNSGNTATLTISRVEAGDEADYYCQVWDSSSDHVVFGGGTKLTVL
Not satisfied
AB-010681 (antibody, V domains shown) VH: QVQLQQWGAGLLKPSETLSLTCAVYGGSFSGYYWSWIRQPPGKGLEWIGEINHRGSINYNNYNPSLKSRVTISVDTSKNQFSLKLSSVTAADTAVYYCAKPLRPHCTNGVCYSGDAFDIWGQGTMVTVAS VL: SYVLTQPPSVSVAPGQTARITCGGNNIGYKNVHWYQQKPGQAPVLVVYDDSDRPSGIPEQFSGSNSGNTATLTISRVEAGDEADYYCQVWDHSSDHVVFGGGTKLTVL
Satisfied
AB-010693 (antibody, V domains shown) VH: QVQLQQWGAGLLKPSETLSLTCAVYGGSFSGYYWSWIRQPPGKGLEWIGEINHRGSINYNNYNPSLKSRVTISVDTSKNQFSLKLSSVTAADTAVYYCAKPLRPHCINGVCYSGDAFDIWGQGTMVTVAS VL: SYVLTQPPSVSVAPGQTARITCGGNNIGYKNVHWYQQKPGQAPVLVVYDDSDRPSGIPERFSGSNSGNTATLTISRVEAGDEADYYCQVWDSSSDHVVFGGGTKLTVL
Satisfied
AB-010687 (antibody, V domains shown) VH: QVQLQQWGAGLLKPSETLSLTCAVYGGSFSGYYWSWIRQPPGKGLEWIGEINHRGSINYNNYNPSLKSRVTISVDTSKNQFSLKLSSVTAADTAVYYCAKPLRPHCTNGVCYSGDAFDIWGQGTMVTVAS VL: SYVLTQPPSVSVAPGQTARITCGGNNIGSKNVHWYQQKPGQAPVLVVYDDSDRPSGIPEQFSGSNSGNTATLTISRVEAGDEADYYCQVWDSESDHVVFGGGTKLTVL
Not satisfied

Note: attention shifts to another entry.
Problem: Determine if AB-010363 (antibody, V domains shown) VH: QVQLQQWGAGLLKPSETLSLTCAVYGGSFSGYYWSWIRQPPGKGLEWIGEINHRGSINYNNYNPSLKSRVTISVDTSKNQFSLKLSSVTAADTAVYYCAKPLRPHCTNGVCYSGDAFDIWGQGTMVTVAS VL: SYVLTQPPSVSVAPGQTARITCGGNNIGSKNVHWYQQKPGQAPVLVVYDDSDRPSGIPERFSGSNSGNTATLTISRVEAGDEADYYCQVWDSSSDHVVFGGGTKLTVL shows ADCC - EC50 (nM), Trial 1, A549 strictly lower than 0.3 nM.
Result: Not satisfied
